Tested on: human PBMCs
Experiment: Human PBMC cytokine response assay (IFN-γ and IFN-α in cell-free medium by ELISA), with or without cPLGA
Type: cell-based
Settings: Donor 2; 20 μg/ml, 24 h
Strand notation (5' to 3'): a small letter for the sugar, then the base; units joined by * are phosphorothioate-linked, units joined directly phosphodiester-linked; [ ] holds rarer units or linkages, { } end groups; capitals alone tell only the bases. d = 2'-deoxy (DNA)
EXPERIMENTAL_READOUT: IFN-γ (pg/ml) Donor 2 (pg/mL)
Number only, in pg/mL; omit the unit.

These solved cases illustrate the format of a correct answer.
SUBSTANCE: 5′-TCGTCGA-3′- C3-5′-ACGTTCG-3′-C3-5′-AGATGAT-3′ [Compound C-9]
UNIT_INFO: pg/mL
IFN-γ (pg/ml) Donor 2: 171
//
SUBSTANCE: 5′-TCGTCG-3′-HEG-5′-ACGTTCG-3′-HEG-5′-AGATGAT-3′ [Compound C-10]
UNIT_INFO: pg/mL
IFN-γ (pg/ml) Donor 2: 952
//
SUBSTANCE: 5′-TCGTCG-3′- C3-5′-ACGTTCG-3′-C3-5′-AGATGAT-3′ [Compound C-11]
UNIT_INFO: pg/mL
IFN-γ (pg/ml) Donor 2: 270
//
SUBSTANCE: 5′-TCGTCGA-3′-HEG-5′-ACGTTCG-3′-HEG-5′-AGATGAT-3′ [Compound C-8]
UNIT_INFO: pg/mL
IFN-γ (pg/ml) Donor 2: 696

Recorded IFN-γ (pg/ml) Donor 2 for 5′-TCGTCGA-3′ [Compound P-1, reference compound] , please?
0

Given 5′-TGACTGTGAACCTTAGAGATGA-3′ (SEQ ID NO: 3) (dT*dG*dA*dC*dT*dG*dT*dG*dA*dA*dC*dC*dT*dT*dA*dG*dA*dG*dA*dT*dG*dA) [Compound P-7, negative control, reference compound] , state its recorded IFN-γ (pg/ml) Donor 2.
51

###

Test system: human PBMCs
Assay: Human PBMC cytokine response assay (IFN-γ and IFN-α in cell-free medium by ELISA), with or without cPLGA
Type: cell-based
Settings: donor 28185; Table 15
Strand notation (5' to 3'): a small letter for the sugar, then the base; units joined by * are phosphorothioate-linked, units joined directly phosphodiester-linked; [ ] holds rarer units or linkages, { } end groups; capitals alone tell only the bases. d = 2'-deoxy (DNA)
Label 1.0 when IFN-a >= 20 pg/mL; otherwise 0.0.

Answered cases to consult:
SUBSTANCE: 5′-TGCTGCA-3′-C3-5′-AGCTTGC-3′-C3-5′-AGATGAT-3′ (No CG) [Compound C-86]
CATEGORY: 0.0
--
SUBSTANCE: 5′-TCGTCGA-3′- C3-5′-ACGTTCG-3′-C3-5′-AGATGAT-3′ [Compound C-9]
CATEGORY: 1.0
--
SUBSTANCE: (5′-TCGTCGA-3′)2-glycerol-5′-TCGTCGA-3′ [Compound C-28]
CATEGORY: 0.0
--
SUBSTANCE: (5′-TCGTCGA-3′-HEG)2-glycerol-HEG-5′-AACGTTC-3′ [Compound C-96]
CATEGORY: 1.0
--
SUBSTANCE: (5′-TCGTCGA-3′-HEG)2-glycerol-HEG-5′-TCGTCGA-3′ [Compound C-94]
CATEGORY: 1.0

Kindly determine if IFN-a recorded for (5′-TCGTCGA-3′-HEG)2-glycerol-HEG-5′-AACGTTC-3′-HEG-5′-TCGA-3′ [Compound C-97] is above or exactly 20 pg/mL.
1.0

Does the substance 5′-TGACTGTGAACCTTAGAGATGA-3′ (SEQ ID NO: 3) (dT*dG*dA*dC*dT*dG*dT*dG*dA*dA*dC*dC*dT*dT*dA*dG*dA*dG*dA*dT*dG*dA) [Compound P-7, negative control, reference compound] have recorded IFN-a that is 20 pg/mL or more?
0.0

###

System: human PBMCs
Experiment: Human PBMC cytokine response assay (IFN-γ and IFN-α in cell-free medium by ELISA), with or without cPLGA
Type: cell-based
Conditions: Table 11; donor 28044
EXPERIMENTAL_READOUT: IFN-α
Your reply should be a number followed by the unit it is expressed in.

Below, each entry is followed by its recorded IFN-α result.
SUBSTANCE: (5′-TCGTCGA-3′-HEG)2-glycerol-HEG-5′-TCGTCGA-3′ (phosphodiester) [Compound C-93]
TARGET_SYSTEM: human PBMCs
IFN-α: 81 pg/mL

SUBSTANCE: 5′-TCGTCGA-3′-HEG-5′-ACGTTCG-3′-HEG-5′-AGATGAT-3′ [Compound C-8]
TARGET_SYSTEM: human PBMCs
IFN-α: 52 pg/mL

SUBSTANCE: 5′-TCGTCGA-3′- C3-5′-ACGTTCG-3′-C3-5′-AGATGAT-3′ [Compound C-9]
TARGET_SYSTEM: human PBMCs
IFN-α: 11 pg/mL

SUBSTANCE: 5′-GsGs-3′-C3-5′-TGC-3′-C3-5′-ATCGAT-3′-C3-5′-GCA-3′-C3-5′-GGsGsGsGsG-3′ (s = phosphorothioate linkages, otherwise linkages are phosphodiester) [Compound C-84]
TARGET_SYSTEM: human PBMCs
IFN-α: 5 pg/mL

SUBSTANCE: 5′-GsGs-3′-C3-5′-TCGTGC-3′-C3-5′-ATCGAT-3′-C3-5′-GCACGA-3′-C3-5′-GGsGsGsGsG-3′ (s = phosphorothioate linkages, otherwise linkages are phosphodiester) [Compound C-85]
TARGET_SYSTEM: human PBMCs
IFN-α: 28 pg/mL

From here, focus on the item given below.
# input substance: 5′-TGACTGTGA-3′-HEG-5′-ACGTTCG-3′-HEG-5′-AGATGAT-3′ [Compound C-53] ; wanted: its IFN-α
0 pg/mL

###

Known IFN-α of a selection of substances
System: human PBMCs
Experiment: Human PBMC cytokine response assay (IFN-γ and IFN-α in cell-free medium by ELISA), with or without cPLGA
Assay type: cell-based
Conditions: Example 58; 0.8 ug/ml; donor 1
Dear colleague, please return just the value in pg/mL, with no unit written.

# count of solved cases: 5
SUBSTANCE: (5′-TCGAACGTTCGA-3′ (SEQ ID NO: 155)-HEG)2-glycerol-HEG-3′-AGCTTGCAAGCT-5′ (SEQ ID NO: 155) (DNA, all phosphorothioate, methylation of C not given here; Three DNA copies joined by HEG spacers and glycerol branching, one copy inverted) [Compound C-174]
OBSERVED_VALUE: 7907
//
SUBSTANCE: 5′-TCGAACGTTCGA-3′ (SEQ ID NO: 155) (listed as DNA, chemistry not fully specified) [Compound P-17, reference compound]
OBSERVED_VALUE: 52
//
SUBSTANCE: (5′-TAGTCAT-3′-HEG)2-glycerol-HEG-5′-AACCTTC-3′ [Compound M-3, reference compound]
OBSERVED_VALUE: 52
//
SUBSTANCE: (5′-TCGAACGTTCGA-3′ (SEQ ID NO: 155)-HEG)3-trebler-HEG-5′-T-3′ (three copies HEG-trebler branched, HEG-T, chemistry not fully specified) [Compound C-175]
OBSERVED_VALUE: 21783
//
SUBSTANCE: (5′-TCGAACGTTCGA-3′ (SEQ ID NO: 155)-HEG)2-glycerol-HEG-5′-TCGAACGTTCGA-3′ (SEQ ID NO: 155) (three copies via HEG-glycerol branching, chemistry not fully specified) [Compound C-173]
OBSERVED_VALUE: 272

Now let's try a different one.
Give the measured IFN-α of (5′-TCGACGT-3′-HEG)2-glycerol-HEG-5′-TCGACGT-3′ [Compound C-101] .
52

###

Tested on: human PBMCs
Assay: Human PBMC cytokine response assay (IFN-γ and IFN-α in cell-free medium by ELISA), with or without cPLGA
Assay type: cell-based
Conditions: mean of donors 28185-28188; Table 15
Strand notation (5' to 3'): a small letter for the sugar, then the base; units joined by * are phosphorothioate-linked, units joined directly phosphodiester-linked; [ ] holds rarer units or linkages, { } end groups; capitals alone tell only the bases. d = 2'-deoxy (DNA)
EXPERIMENTAL_READOUT: IFN-g (pg/ml) mean
Output should be the measured figure followed by the unit it is expressed in.

SUBSTANCE: 5′-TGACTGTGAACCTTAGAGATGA-3′ (SEQ ID NO: 3) (dT*dG*dA*dC*dT*dG*dT*dG*dA*dA*dC*dC*dT*dT*dA*dG*dA*dG*dA*dT*dG*dA) [Compound P-7, negative control, reference compound]
OBSERVED_VALUE: 6 pg/mL
//
SUBSTANCE: (5′-TCGTCGA-3′-HEG)2-glycerol-HEG-5′-AACGTTC-3′-HEG-5′-TCGA-3′ [Compound C-97]
OBSERVED_VALUE: 101 pg/mL
//
SUBSTANCE: 5′-TCGTCG-3′-HEG-5′-AACGTT-3′-HEG-5′-AGATGAT-3′ [Compound C-23]
OBSERVED_VALUE: 22 pg/mL

API: value(readout=IFN-g (pg/ml) mean, system=human PBMCs) for record (5′-TCGTCGA-3′-HEG)2-glycerol-HEG-5′-TCGTCGA-3′ [Compound C-94]
161 pg/mL

Provide value of IFN-g (pg/ml) mean for this record tested with human PBMCs: (5′-TCGTCGA-3′)2-glycerol-5′-TCGTCGA-3′ [Compound C-28]
66 pg/mL

What is its IFN-g (pg/ml) mean for human PBMCs? Entry: 5′-TGCTGCA-3′-C3-5′-AGCTTGC-3′-C3-5′-AGATGAT-3′ (No CG) [Compound C-86]
10 pg/mL
